- MEASUREMENT PROTOCOL: yeast display, Sf9 membrane polyspecificity reagent, FACS + sequencing; frameworks hold sequencing errors
MEASURED QUANTITY: polyreactivity (PSR sort gate)

QVQLVESGGGLVQAGGSLRLSCAASGSTFSFNDMGWYRQAPGKERELVADISWSGDTTYADSVKGRFTISRDNAKNTVYLQMNSLKPEDTAVYYCNAEGFSIAFYANWVVQWEFDFWGQGTQVSVSS	high polyreactivity
QVQLVESGGGLVQAGGSLRLSCAASGRTFYYNAMGWSRQAPGKEREFVARITRSGTNTYYADSVKGRFTISRDNAKNTVYLQMNSLKPEDTAVYYCARRGTSSYRRYWLDSASNMDYWGQGTQVTVSS	high polyreactivity
QVQLVESGGGLVQAGGSLRLSCAASGRIFRTYAMGWYRQAPGKERELVAAINSVDRTYYADSVKGRFTISRDNAKNTVYLQMNSLKPEDTAVYYCAARGYRGHDEFGYWGQGTQVTVSS	high polyreactivity

====

- MEASUREMENT PROTOCOL: yeast display, Sf9 membrane polyspecificity reagent, FACS + sequencing; frameworks hold sequencing errors
MEASURED QUANTITY: polyreactivity (PSR sort gate)

Answered cases to consult:
QVQLVESGGGIVQAGGSLRLSCAASGSIFYVYAMGWYRQAPGKERELVAAIYSGASTYYADSVKGRFTISRDNAKNTVYLQMNSLKPEDTAVYYCAKRWRRRFVDVWSLYDYWGQGTQVTVSS	low polyreactivity
QVQLVESGGGLVHAGGSLRLSCAASGFTFGNAMGWYRQAPGKERELVAAITVNGGTTNYADSVKGRFTISRDNAKNTVYLQMNSLKPEDTAVYSCNVDTSYGPAGDYWGQGTQVTVSS	low polyreactivity
QVQLVESGGGLVQAGGSLRLICAASGSIFITNAMGWYRQAPGKEREMVAAISGRGGSTYYADSVKGRFTISRDNAKNTVYLQMNSLKPEDTAVYYCNAYSYRVSGYDYWGQGTQVTVSS	high polyreactivity
QVQLVESGGGLVQAGGSLRLSCDASGSIFGGYAMGWYRQAHGKARELVAGISSGGSTYYADSVKGRFTISRDNAKNTVYLQMNSLKPEDTAVYYCATSTYAYRRNSYYYTRPRFGYCGQGTQVTVSS	high polyreactivity
QVQLVESGGGLVQAGGSLRLSCAASGRIFPANVMGWYRQAPGKETELVAAITRGDSTNYADSVKGRFTISRDNAKNTVYLQMTSLKPEDTAVYYCAAYGRYLLWDYDYWGQGTQVTVSS	low polyreactivity

-- ask Tell me the measured polyreactivity (PSR sort gate) of `QDQLVESGGGLVQAGGSLRLSCAASGSTFPNNAMGWYREAPGKERELVATITTGGSTYYADSVKGRFTISRDNAKNTVYLQMNSLKPEDTAVYYCAADHLSYRRRYEYWGQGTQVTVSS` , please.
-- reply low polyreactivity

-- ask Tell me the measured polyreactivity (PSR sort gate) of `QVQLVESGGGLVQAGGSLRLSCAASGGTFYRNAMGWYRQAPGKERELVAAITKRGGSTYYADSVKGRFTISRDNAKNTVYIQINSLKPEDTAVYYCAKDAAPIPGNDSDYWGQGTQVTVSS` , please.
-- reply high polyreactivity

-- ask Tell me the measured polyreactivity (PSR sort gate) of `QDQLVESGGGLVQAGGSLRLSCAASGIIFQYYAMGWYRQAPGKERELVAAISWSGGSTYYADSVKGRFTISRDNAKNTVYLQMNSLKPEDTAVYYCAARSRSYWPYEGDYWGQGTQVTVSS` , please.
-- reply low polyreactivity
